The next entries give measured IC50 for Human reticulocyte 15-lipoxygenase-1 (15-LOX-1) (Homo sapiens, UniProt P16050).

Would you please look over these solved cases?
molecule: CC[C@](O)(c1nnc(NCc2ccc3c(-c4ccc(F)cc4)cc(=O)oc3c2)o1)C(F)(F)F [setileuton, reference compound]
study system: Human reticulocyte 15-lipoxygenase-1 (15-LOX-1) (Homo sapiens, UniProt P16050)
Sequence (P16050 whole entry): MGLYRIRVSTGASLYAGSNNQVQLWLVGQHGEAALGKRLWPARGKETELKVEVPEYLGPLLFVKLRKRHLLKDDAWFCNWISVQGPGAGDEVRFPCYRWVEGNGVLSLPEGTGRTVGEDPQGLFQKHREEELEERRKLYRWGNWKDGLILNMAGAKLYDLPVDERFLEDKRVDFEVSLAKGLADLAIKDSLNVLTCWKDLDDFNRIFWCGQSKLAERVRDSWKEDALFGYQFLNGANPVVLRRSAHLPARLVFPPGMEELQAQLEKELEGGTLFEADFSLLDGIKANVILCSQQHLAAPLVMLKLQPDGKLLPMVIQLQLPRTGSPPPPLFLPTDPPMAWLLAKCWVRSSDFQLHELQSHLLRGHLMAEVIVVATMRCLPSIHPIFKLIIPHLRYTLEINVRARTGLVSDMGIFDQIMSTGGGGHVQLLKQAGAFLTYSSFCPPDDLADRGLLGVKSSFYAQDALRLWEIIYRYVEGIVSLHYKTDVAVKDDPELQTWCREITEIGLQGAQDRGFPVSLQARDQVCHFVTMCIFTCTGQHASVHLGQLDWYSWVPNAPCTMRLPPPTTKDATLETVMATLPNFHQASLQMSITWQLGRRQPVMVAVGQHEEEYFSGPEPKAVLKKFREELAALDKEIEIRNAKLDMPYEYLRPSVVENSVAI
readout: IC50
experimental result: > 150 µM
--
molecule: CC(=O)N1CCN(c2ccc(OCC3COC(Cn4ccnc4)(c4ccc(Cl)cc4Cl)O3)cc2)CC1 (centres unmarked) [ketoconazole, reference compound]
study system: Human reticulocyte 15-lipoxygenase-1 (15-LOX-1) (Homo sapiens, UniProt P16050)
readout: IC50
experimental result: > 50 µM
--
molecule: Cc1cc(C2CCCCC2)n(O)c(=O)c1 [ciclopirox, reference compound]
study system: Human reticulocyte 15-lipoxygenase-1 (15-LOX-1) (Homo sapiens, UniProt P16050)
readout: IC50
experimental result: > 100 µM

List the reported IC50 of each molecule below.
1. CC(C)(C)OC(=O)N1CCN(c2ccc(NCc3ccc(-c4ccc(C#N)cc4)o3)cc2)CC1
2. CC(c1cc2ccccc2s1)N(O)C(N)=O (centres unmarked) [zileuton, reference compound]

> 150 µM
> 50 µM
